target: PRKCQ (PKC theta) (Homo sapiens, UniProt Q04759); test: SelectScreen kinase specificity survey; details: estimated, abridged dose response curve, read-out: Kinase inhibitory activity EC50
Sequence (Q04759 whole entry): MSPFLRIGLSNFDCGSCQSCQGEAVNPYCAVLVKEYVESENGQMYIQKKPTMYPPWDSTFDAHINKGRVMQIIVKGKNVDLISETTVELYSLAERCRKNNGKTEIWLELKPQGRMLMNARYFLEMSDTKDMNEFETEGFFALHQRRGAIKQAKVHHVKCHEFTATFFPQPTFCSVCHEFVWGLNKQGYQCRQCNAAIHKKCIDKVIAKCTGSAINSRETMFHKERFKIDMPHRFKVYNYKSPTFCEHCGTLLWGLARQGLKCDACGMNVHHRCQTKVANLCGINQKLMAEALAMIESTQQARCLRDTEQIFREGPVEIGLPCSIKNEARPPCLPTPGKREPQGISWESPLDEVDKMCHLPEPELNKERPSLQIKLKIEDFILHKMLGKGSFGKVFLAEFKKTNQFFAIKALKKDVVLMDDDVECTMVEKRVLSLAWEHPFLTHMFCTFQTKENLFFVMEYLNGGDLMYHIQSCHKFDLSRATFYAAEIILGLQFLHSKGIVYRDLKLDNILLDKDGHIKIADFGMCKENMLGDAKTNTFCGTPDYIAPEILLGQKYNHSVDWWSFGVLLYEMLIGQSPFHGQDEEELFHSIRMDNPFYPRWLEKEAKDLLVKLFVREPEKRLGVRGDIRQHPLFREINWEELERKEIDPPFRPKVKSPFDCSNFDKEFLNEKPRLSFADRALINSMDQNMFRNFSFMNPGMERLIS
pEC50: −log10 of the molar value.
valueKind: pEC50

**Q:** What value of pEC50 has been reported for the following molecule? `CN(C)CCCNc1ccc2ncn3c4ccc5[nH]ncc5c4c(=O)c1c23`
**A:** < 5.30

**Q:** // pEC50 lookup, key: CCN(CC)CCNc1ccc2ncn3c4ccc(O)cc4c(=O)c1c23 [Symadex, reference compound]
**A:** < 5.30

* * *

biological target: NTRK1 (TRKA) (Homo sapiens); construct: purchased Invitrogen (SelectScreen); assay: SelectScreen kinase specificity survey; assay type: biochemical; details: NTRK1 (TRKA); estimated, abridged dose response curve; read-out: Kinase inhibitory activity EC50
Sequence (P04629 33-796): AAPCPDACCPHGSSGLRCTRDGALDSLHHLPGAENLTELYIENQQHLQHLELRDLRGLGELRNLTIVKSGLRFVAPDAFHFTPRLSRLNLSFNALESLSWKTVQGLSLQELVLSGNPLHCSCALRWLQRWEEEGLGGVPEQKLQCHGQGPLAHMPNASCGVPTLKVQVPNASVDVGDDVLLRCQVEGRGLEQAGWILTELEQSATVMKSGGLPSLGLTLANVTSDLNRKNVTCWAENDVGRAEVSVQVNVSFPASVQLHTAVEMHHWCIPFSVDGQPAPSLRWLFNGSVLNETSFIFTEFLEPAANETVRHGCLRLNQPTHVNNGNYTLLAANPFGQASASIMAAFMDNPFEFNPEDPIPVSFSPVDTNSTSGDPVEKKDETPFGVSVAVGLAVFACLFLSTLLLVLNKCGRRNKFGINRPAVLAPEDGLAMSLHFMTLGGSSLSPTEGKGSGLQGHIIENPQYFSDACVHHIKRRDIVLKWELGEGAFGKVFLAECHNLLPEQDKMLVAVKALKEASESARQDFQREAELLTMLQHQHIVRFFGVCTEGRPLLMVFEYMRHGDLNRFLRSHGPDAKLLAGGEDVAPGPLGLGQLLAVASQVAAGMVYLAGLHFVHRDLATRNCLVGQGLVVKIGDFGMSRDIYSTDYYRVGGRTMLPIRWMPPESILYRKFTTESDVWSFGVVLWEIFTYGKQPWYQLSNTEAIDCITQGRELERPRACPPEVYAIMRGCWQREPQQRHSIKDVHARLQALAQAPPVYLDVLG
valueKind: pEC50
Reminder that pEC50 means the negative base-10 logarithm of the concentration expressed in mol/L.

**Q:** What does the record list as pEC50 for `CN(C)CCCNc1ccc2ncn3c4ccc5[nH]ncc5c4c(=O)c1c23` ?
**A:** 6.36
